The measured values listed here are drawn from PubChem BioAssay (NCATS).

System: SKOV3
EXPERIMENT DESCRIPTION: Primary qHTS to identify gynecologic anti-cancer compounds using libraries of approved drugs and bioactive compounds (AID 1345084); also: nearly all actives have a fitted effect of over 55% in size
CONDITION SUMMARY: Gynecologic cancer cell panel viability, ATPlite luminescence, 48 h; series mostly up to 57.5 µM
Inconclusive results are not listed. Activity calls are given as the source filed them. Calls follow the shape of the dose curve; as a rule, active = well fitted cell-killing curve with a large enough effect; inconclusive = small, poorly fitted or top-dose-only effect, or effect the other way; inactive = flat fitted curve, though single readings scatter.
The categories you may choose from are 1 (yes) (active), 0 (no) (inactive)

Record excerpt, results attached:
COMPOUND: CCC1C(=O)N(C)c2cnc(Nc3ccc(C(=O)NC4CCN(C)CC4)cc3OC)nc2N1C1CCCC1 (stereo not given)
CLASS: 1 (yes)
--
COMPOUND: CCc1ccccc1OC[C@@H](O)CN[C@H]1CCCc2ccccc21
CLASS: 0 (no)
--
COMPOUND: Cc1ccccc1CN1CCn2c1nc1c(c2=O)CN(Cc2ccccc2)CC1
CLASS: 0 (no)
--
COMPOUND: C[C@@H](NC(=O)c1ccc(C#Cc2cccc(F)c2)cn1)C(C)(C)O
CLASS: 0 (no)

Consider now this further compound.
Task item: Just curious, what result did CC1CCC/C=C/C(=O)c2c(O)cc(O)cc2CC(=O)O1 (stereo not given) get here?
Reply: 1 (yes)
